# TGT: human RXFP3 (Homo sapiens, UniProt Q9NSD7)
# Construct: expressed in transfected cells; host or cells: HEK293T
# Sequence (Q9NSD7 1-469): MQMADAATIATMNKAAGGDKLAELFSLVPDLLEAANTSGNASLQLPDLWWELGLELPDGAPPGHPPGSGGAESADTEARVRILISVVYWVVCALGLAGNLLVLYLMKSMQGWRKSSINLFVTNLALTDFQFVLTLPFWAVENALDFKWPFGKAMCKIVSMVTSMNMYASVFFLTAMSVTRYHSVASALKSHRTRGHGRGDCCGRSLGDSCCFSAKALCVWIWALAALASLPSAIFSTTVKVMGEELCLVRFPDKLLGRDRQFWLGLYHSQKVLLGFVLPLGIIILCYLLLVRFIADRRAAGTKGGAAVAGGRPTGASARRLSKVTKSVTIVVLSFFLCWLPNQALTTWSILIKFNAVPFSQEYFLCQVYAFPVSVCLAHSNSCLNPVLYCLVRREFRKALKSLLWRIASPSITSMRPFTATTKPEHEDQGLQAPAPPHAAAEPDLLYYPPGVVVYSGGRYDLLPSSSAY
# PROCEDURE_DETAILS: Receptor binding assay, competition with NanoLuc-conjugated R3/I5 tracer
# MEASUREMENT_CONTEXT: HEK293T cells transiently overexpressing human RXFP3; 0.5 nM NanoLuc-conjugated R3/I5 tracer; 21 °C, 2 h; mean ± SE, n = 3; SEM
No end group written: not given here.
VALUE_TYPE: pIC50 RXFP3
Give bare numbers.

Sample answers from the record:
substance="[I(B18)T]INSL5: recombinant mature two-chain INSL5 mutant (Insulin-like peptide INSL5 B … KESVRLCGLEYIRTVIYTCASSRW; Insulin-like peptide INSL5 A … QDLQTLCCTDGCSMTDLSALC; ends and bridges not checked; cysteine pairing not given here; UniProt Q9Y5Q6 23-46; Q9Y5Q6 115-135, looked up, variant I18T)" value_type="pIC50 RXFP3" recorded_number=7.07
substance="[G(B23)A,G(B24)S]R3/I5: recombinant mature two-chain R3/I5 mutant (chain 1 RAAPYGVRLCGREFIRAVIFTCASSRW; chain 2 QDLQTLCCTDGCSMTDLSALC; disulfide (positions not given here); not fully specified; also: A-chain N-terminal pyroglutamate likely)" value_type="pIC50 RXFP3" recorded_number=8.61
substance="[Y(B17)F]INSL5: recombinant mature two-chain INSL5 mutant (Insulin-like peptide INSL5 B … KESVRLCGLEYIRTVIFICASSRW; Insulin-like peptide INSL5 A … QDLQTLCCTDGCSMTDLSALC; ends and bridges not checked; cysteine pairing not given here; UniProt Q9Y5Q6 23-46; Q9Y5Q6 115-135, looked up, variant Y17F)" value_type="pIC50 RXFP3" recorded_number=6.77

For the next question, use this substance.
Consider the substance shown here: [T(B14)A]INSL5: recombinant mature two-chain INSL5 mutant (Insulin-like peptide INSL5 B … KESVRLCGLEYIRAVIYICASSRW; Insulin-like peptide INSL5 A … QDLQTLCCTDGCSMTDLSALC; ends and bridges not checked; cysteine pairing not given here; UniProt Q9Y5Q6 23-46; Q9Y5Q6 115-135, looked up, variant T14A) What is its recorded pIC50 RXFP3?
7.06
